Data credit: ChEMBL document CHEMBL1629634

Test: Drug level in patient serum at 100 mg, iv followed by 50 mg every 12 hrs after 60 mins post dose
Assay type: ADME, organism-based
Details: human, read-out: Drug uptake

smilesCode	concentration at 1 h (ng/mL)
CN(C)c1cc(NC(=O)CNC(C)(C)C)c(O)c2c1C[C@H]1C[C@H]3[C@H](N(C)C)C(O)=C(C(N)=O)C(=O)[C@@]3(O)C(O)=C1C2=O	600

* * *

Assay: Half life in patient serum at 100 mg, iv followed by 50 mg every 12 hrs after 60 mins post dose
Type: ADME, organism-based
Conditions: human

compound	half-life [h]
CN(C)c1cc(NC(=O)CNC(C)(C)C)c(O)c2c1C[C@H]1C[C@H]3[C@H](N(C)C)C(O)=C(C(N)=O)C(=O)[C@@]3(O)C(O)=C1C2=O [TIGECYCLINE]	40
